test system: HOP-92 NSCLC; assay: NCI tumour cell line growth inhibition, 48 h
Please go through the items and note down their TGI.
Number in µM, nothing else.

Lab note: need TGI with HOP-92 NSCLC for entry Cc1cc(NC(=O)c2ccc(NS(=O)(=O)CCO)cc2N2CCC3(CC2)CC3)nc(N2CCC(F)(F)CC2)n1 , please look it up.
29.6

Repeat with O=c1oc2ccc(Cl)cc2c(=O)n1-c1ccc(Cl)cc1F
0.49

###

tested on: HCC-2998 colon; experiment: NCI tumour cell line growth inhibition, 48 h
outcome measure: TGI

Return reported TGI; argument: O=C(O)c1ccc(Nc2ccnc3cc(Cl)ccc23)cc1O
> 100 µM

Repeat with COc1ccc(C(=S)c2cc(OC)c(OC)c(OC)c2)cc1OC(=O)CCl
> 100 µM

Repeat with NCCCNc1ccc2c(c1)[n+]([O-])c1ccccc1[n+]2[O-]
> 100 µM

Repeat with O=c1oc2ccc(Cl)cc2c(=O)n1-c1ccc(Cl)cc1F
8.09 µM

Repeat with Nc1nc(N)c2nc(CNc3ccc(C(=O)CC(CCC(=O)O)C(=O)O)cc3)cnc2n1 (configuration not stated)
> 96.2 µM

Repeat with CS(=O)(=O)c1ccc(N/N=C/c2c(-c3ccc(S(C)(=O)=O)cc3)[nH]c3ccc(F)cc23)cc1
> 50 µM

Repeat with O=C1C=C(Nc2ccccc2)c2ncccc2C1=O
3 µM

Repeat with CCCCCCCCCCCCCCCCOP(=O)(O)OP(=O)(O)OCC1OC(n2ccc(N)nc2=O)CC1O (configuration not stated)
> 100 µM

Repeat with CSc1nc(NC2OCC(OC(C)=O)C(OC(C)=O)C2OC(C)=O)c(N=CC=Nc2c(NC3OCC(OC(C)=O)C(OC(C)=O)C3OC(C)=O)nc(SC)n(C)c2=O)c(=O)n1C (configuration not stated)
> 100 µM

Repeat with N=c1ccn2c(n1)OC1C(OP(=O)(O)O)C(CO)OC12 (configuration not stated)
96.4 µM

Repeat with CC1CCCOc2ccc(cc2)C=Nc2ccc(cc2)CCc2ccc(cc2)N=Cc2ccc(cc2)OCCC1 (configuration not stated)
> 100 µM

Repeat with CCOC(=O)c1sc2nc(SC)nc(Nc3ccc4c(c3)OCCCO4)c2c1N
> 100 µM

Repeat with CCOC(=O)[C@H](CSSc1ncnc2cc[nH]c12)NC(=O)[C@@H](C)c1ccc2cc(OC)ccc2c1
> 100 µM

Repeat with CC1=CC2=C(OCO1)C(=O)c1ccccc1C2=O
> 100 µM

Repeat with CC[C@H](C)c1occ2c(O)c(C(=O)O)c(=O)cc-2c1C
36.8 µM

Repeat with C[C@]12CCC[C@H](OC=O)C1(O)C[C@H](C(=O)O)CC2 (some centres not stated)
> 100 µM

Repeat with N=c1c2c(ncn1N)Oc1c(c(-c3ccccc3)nn1-c1ccccc1)C2c1ccc(Cl)cc1 (configuration not stated)
3.08 µM

Repeat with O=C1c2ccccc2C(=O)c2c(OCC3CO3)ccc(OCC3CO3)c21 (configuration not stated)
> 46.3 µM

Repeat with O=C(OC(C(=O)O)C(OC(=O)c1ccccc1)C(=O)O)c1ccccc1 (configuration not stated) (tested in a mixture with another compound)
> 100 µM

Repeat with CC1=CC(C)C(C)N(CCNC(=O)Nc2ccccc2)c2ccccc21 (configuration not stated)
61.1 µM

Repeat with Cc1c(O)c(OC2OC(CO)C(O)C(O)C2O)cc2c1CC[C@@H]1C2(C)C(=O)C[C@]2(C)[C@@H]([C@@](C)(O)C(O)/C=C/C(C)(C)O)[C@H](O)C[C@@]12C (some centres not stated)
> 100 µM

Repeat with CCC1(O)CC(OC2CC(N(C)C)C(OC3CC(O)C(OC4OC(C)C(=O)C=C4N)C(C)O3)C(C)O2)c2c(O)c3c(c(O)c2C1C(=O)OC)C(=O)c1cccc(O)c1C3=O (configuration not stated)
0.118 µM

Repeat with C#C[C@@]1(O)[C@@H](CO)O[C@@H](n2cc(Cl)c3c(N)ncnc32)[C@@H]1O
0.532 µM

Repeat with O=C(O)C(Cc1cccs1)NC(=O)C(F)(F)F (configuration not stated)
> 100 µM

Repeat with C[C@H]1CCC/C=C/[C@@H]2C[C@H](O)C[C@H]2[C@H](O)[C@H](S(=O)c2ccc(O)cc2)CC(=O)O1 (some centres not stated)
0.0951 µM

Repeat with CC(=O)O[C@H](C[C@H](C(C)C)N(C)C(=O)[C@@H](NC(=O)[C@H]1CCCCN1C)C(C)C)c1nc(C(=O)N[C@@H](Cc2ccccc2)C[C@H](C)C(=O)O)c(C)s1
> 25 µM

Repeat with O=S(=O)(NCCNc1cc(-c2cn(-c3ccccc3)nc2-c2cccc(O)c2)ccn1)c1ccc(C(F)(F)F)cc1
4.45 µM

Repeat with CS(=O)(=O)CCNCc1ccc(-c2ccc3ncnc(Nc4ccc(OCc5ccccc5)c(C(F)(F)F)c4)c3c2)o1
8.25 µM

Repeat with CSc1ccc(-c2cn3ccsc3n2)c(O)c1
> 100 µM

Repeat with COc1ccc(NC(=O)C(=O)C(CC2C(=O)NC(=S)NC2=O)C(=O)c2ccc3ccccc3c2)c([N+](=O)[O-])c1 (configuration not stated)
> 100 µM

Repeat with COc1ccc(-c2coc3ncnc(N)c23)cc1
> 25 µM

Repeat with CNC(=O)Nc1cc2c3c(c1)CCCN3CCC2
> 10 µM

Repeat with C#CCCCC(=C)C[C@H](OCc1ccccc1)[C@H]1OC(=O)[C@@H]1C
> 100 µM

Repeat with O=S(=O)(/C=C/C=C/S(=O)(=O)c1ccccc1)c1ccccc1
25.1 µM

Repeat with CC(C#N)c1cn(S(=O)(=O)c2ccccc2)c2ccccc12 (configuration not stated)
> 100 µM

Repeat with O=C(O)C(Cc1ccc(O)cn1)NC(=O)C(F)(F)F (configuration not stated)
> 100 µM

Repeat with CCC1CCc2nc3sc(C(=O)Nc4ccccc4F)c(N)c3cc2C1 (configuration not stated)
> 100 µM
